target: Human M4 (Homo sapiens, UniProt P08173); construct: expressed in transfected cells; host or cells: CHO-K1 (ATCC), stably expressing hM4 and Gqi5; assay: mAChR M4 cell-based functional assay (calcium flux, potentiation of EC20 acetylcholine response in CHO-K1 hM4-Gqi5 cells); conditions: CHO-K1; % ACh maximum at 30 μM; human M4
Sequence (P08173 whole entry): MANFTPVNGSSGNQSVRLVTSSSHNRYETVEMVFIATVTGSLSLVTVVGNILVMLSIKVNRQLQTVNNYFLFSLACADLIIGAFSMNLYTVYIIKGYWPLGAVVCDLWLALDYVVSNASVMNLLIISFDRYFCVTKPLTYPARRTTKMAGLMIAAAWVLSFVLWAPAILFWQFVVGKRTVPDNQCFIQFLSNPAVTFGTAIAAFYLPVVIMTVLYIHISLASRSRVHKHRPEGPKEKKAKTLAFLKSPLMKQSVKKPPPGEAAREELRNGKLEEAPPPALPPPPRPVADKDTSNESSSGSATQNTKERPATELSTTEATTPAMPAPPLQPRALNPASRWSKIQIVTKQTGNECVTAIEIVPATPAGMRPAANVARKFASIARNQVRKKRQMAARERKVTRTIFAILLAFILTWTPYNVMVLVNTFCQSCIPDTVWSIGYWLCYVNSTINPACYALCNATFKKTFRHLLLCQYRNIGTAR
Reported Emax at 30 µM values are given for each entry in this list.
Show the value, then the unit it is measured in.

Example entries begin here.
- Cc1nnc2ccc(C(=O)NC3CN(c4ccc(OC(F)F)nc4)C3)cc2c1C: 80.8%
- COc1ccc(CNC(=O)c2ccc3nc(C)cc(C)c3c2)cc1F: 53.1%
- COc1cc(N2CC(NC(=O)c3ccc4nnc(C)c(C)c4c3)C2)c(Cl)cn1: 74.1%
- COc1ccc(CNC(=O)c2ccc3nnc(C)c(C)c3c2)cc1F: 72.3%
- Cc1nnc2ccc(C(=O)NC3CN(c4ncc(C(F)(F)F)cn4)C3)cc2c1C: 76.7%

Prompt line: Identify measured Emax at 30 µM associated with `Cc1nnc2ccc(C(=O)NC3CN(c4ncc(C(F)(F)F)cc4Cl)C3)cc2c1C`
Response line: 75.7%

Prompt line: Identify measured Emax at 30 µM associated with `Cc1nnc2ccc(C(=O)NC3CN(c4cccc(F)n4)C3)cc2c1C`
Response line: 84.5%

Prompt line: Identify measured Emax at 30 µM associated with `Cc1cc(C)c2cc(C(=O)NC3CN(c4nccc(Br)c4Cl)C3)ccc2n1`
Response line: 27.5%

Prompt line: Identify measured Emax at 30 µM associated with `Cc1nnc2ccc(C(=O)NC3CC3)cc2c1C`
Response line: 82.6%

* * *

Reported EC50 values are given for each entry in this list.
target: Human M4 (Homo sapiens, UniProt P08173); experiment: mAChR M4 cell-based functional assay (calcium flux, potentiation of EC20 acetylcholine response in CHO-K1 hM4-Gqi5 cells); conditions: positive allosteric modulator mode, EC20 acetylcholine; CHO-K1 cells with human M4 and Gqi5
Reply numerically in nM, unit not repeated.

Example entries begin here.
- Cc1cc(C)c2cc(C(=O)NC3CN(c4ccnc(OC(F)F)c4)C3)ccc2n1 [Compound 10]: 1400
- Cc1cc(C)c2cc(C(=O)NC3CN(c4ncc(C(F)(F)F)cn4)C3)ccc2n1 [Compound 3]: 6900
- Cc1nnc2ccc(C(=O)NC3CN(c4ccc(F)c(F)c4)C3)cc2c1C [Compound 18]: 740
- Cc1nnc2ccc(C(=O)NC3CN(c4ncccc4F)C3)cc2c1C [Compound 34]: 1220
- Cc1cc(C)c2cc(C(=O)NC3CN(c4cc(Cl)ncc4Cl)C3)ccc2n1 [Compound 5]: 190

Prompt line: Write down the reported EC50 (system: Human M4 (Homo sapiens, UniProt P08173)) of Cc1cc(N2CC(NC(=O)c3ccc4nc(C)cc(C)c4c3)C2)cc(OC(F)F)n1 [Compound 8]
Response line: 1700

Prompt line: Write down the reported EC50 (system: Human M4 (Homo sapiens, UniProt P08173)) of Cc1nnc2ccc(C(=O)NC3CN(c4ccc(OC(F)F)nc4)C3)cc2c1C [Compound 31]
Response line: 1460

* * *

biological target: Human M4 (Homo sapiens, UniProt P08173); construct: expressed in transfected cells; host or cells: CHO-K1 (ATCC), stably expressing hM4 and Gqi5; test: mAChR M4 cell-based functional assay (calcium flux, potentiation of EC20 acetylcholine response in CHO-K1 hM4-Gqi5 cells); settings: CHO-K1; % ACh maximum at 30 μM; human M4
Criterion: Emax at 30 µM strictly less than 60%. Met: Fulfilled. Not met: Not fulfilled.

Example results:
• Cc1cc(C)c2cc(C(=O)NC3CN(c4ncc(C(F)(F)F)cn4)C3)ccc2n1 = Fulfilled
• Cc1nnc2ccc(C(=O)NCc3ccc(C(C)(C)O)cc3)cc2c1C = Not fulfilled

Prompt line: Take the compound `Cc1nnc2ccc(C(=O)NC3CCCC3)cc2c1C` and say whether its Emax at 30 µM is less than 60%.
Response line: Fulfilled

Prompt line: Take the compound `Cc1nnc2ccc(C(=O)NC3CN(c4cccc(C(F)(F)F)n4)C3)cc2c1C` and say whether its Emax at 30 µM is less than 60%.
Response line: Not fulfilled

Prompt line: Take the compound `Cc1cc(C)c2cc(C(=O)NC3CN(c4ncc(OC(C)C)cn4)C3)ccc2n1` and say whether its Emax at 30 µM is less than 60%.
Response line: Fulfilled

Prompt line: Take the compound `Cc1nnc2ccc(C(=O)NC3CN(c4cc(Cl)ncc4Cl)C3)cc2c1C` and say whether its Emax at 30 µM is less than 60%.
Response line: Not fulfilled

Prompt line: Take the compound `Cc1nnc2ccc(C(=O)NC3CN(c4ncc(C#N)cc4Cl)C3)cc2c1C` and say whether its Emax at 30 µM is less than 60%.
Response line: Not fulfilled

Prompt line: Take the compound `Cc1cc(C)c2cc(C(=O)NC3CN(c4ccnc(OC(F)F)c4)C3)ccc2n1` and say whether its Emax at 30 µM is less than 60%.
Response line: Fulfilled
